measured_on: B-RAF G466V (Homo sapiens, UniProt P15056, G466V)
Construct: expressed in transfected cells; host or cells: T-Rex 293 cells (Invitrogen #R71007)
Sequence (P15056 whole entry G466V): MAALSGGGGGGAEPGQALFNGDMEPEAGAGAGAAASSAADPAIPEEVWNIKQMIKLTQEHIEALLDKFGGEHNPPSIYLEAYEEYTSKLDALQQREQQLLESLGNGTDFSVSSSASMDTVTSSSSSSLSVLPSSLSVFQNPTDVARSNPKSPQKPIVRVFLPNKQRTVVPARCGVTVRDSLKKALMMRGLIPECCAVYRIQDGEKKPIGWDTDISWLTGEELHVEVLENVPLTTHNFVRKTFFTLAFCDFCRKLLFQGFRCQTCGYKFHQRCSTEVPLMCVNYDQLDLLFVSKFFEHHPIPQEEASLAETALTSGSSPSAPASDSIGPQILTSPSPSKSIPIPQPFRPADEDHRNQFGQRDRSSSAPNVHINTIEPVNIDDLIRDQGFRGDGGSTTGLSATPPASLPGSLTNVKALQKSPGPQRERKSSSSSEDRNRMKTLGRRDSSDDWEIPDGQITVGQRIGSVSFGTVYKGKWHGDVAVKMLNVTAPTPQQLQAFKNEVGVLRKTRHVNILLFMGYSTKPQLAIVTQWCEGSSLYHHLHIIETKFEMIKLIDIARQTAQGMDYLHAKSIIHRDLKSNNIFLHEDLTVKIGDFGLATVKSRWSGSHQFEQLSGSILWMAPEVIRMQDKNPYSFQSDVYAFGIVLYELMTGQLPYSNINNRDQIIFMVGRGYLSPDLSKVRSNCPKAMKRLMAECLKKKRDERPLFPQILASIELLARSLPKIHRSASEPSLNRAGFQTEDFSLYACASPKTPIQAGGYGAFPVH
test_details: Target protein degradation, assay D: T-Rex 293 cells, HA-BRAF_G466V, 384 well format
Type: cell-based
conditions_used: T-REx-293, Assay D, T-Rex 293 HA-BRAF_G466V cells, 24 hours, Examples 83-269
observable: Dmax

molecule	Dmax
N#Cc1c(NS(=O)(=O)N2CC[C@@H](F)C2)ccc(F)c1Oc1ccc2ncn(-c3cnc(C4(N5CCN(CC6CN(c7ccc(C8CCC(=O)NC8=O)cc7F)C6)CC5)CC4)nc3)c(=O)c2c1 (some centres unmarked)	≤ 35%

Prompt: Consider the molecule N#Cc1c(NS(=O)(=O)N2CC[C@@H](F)C2)ccc(F)c1Oc1ccc2ncn(-c3ccc(N4CCC(CN5CCC6(CC5)CN(c5cccc7c5CN(C5CCC(=O)NC5=O)C7=O)C6)CC4)nc3)c(=O)c2c1 (some centres unmarked) and give its measured Dmax.
Response: ≤ 35%

Prompt: Consider the molecule N#Cc1c(NS(=O)(=O)N2CC[C@@H](F)C2)ccc(F)c1Oc1ccc2ncn(-c3ccc(N4CCC(CN5CCC6(CC5)CCN(c5ccc7c(c5)C(=O)N(C5CCC(=O)NC5=O)C7=O)CC6)CC4)nc3)c(=O)c2c1 (some centres unmarked) and give its measured Dmax.
Response: 35 to 70%

Prompt: Consider the molecule N#Cc1c(NS(=O)(=O)N2CC[C@@H](F)C2)ccc(F)c1Oc1ccc2ncn(-c3cnc(N4CCC(CN5CC6(C5)CN(c5ccc7c(c5)C(=O)N(C5CCC(=O)NC5=O)C7=O)C6)CC4)nc3)c(=O)c2c1 (some centres unmarked) and give its measured Dmax.
Response: 35 to 70%

Prompt: Consider the molecule COc1ccc(N2CCC(CN3CCN(c4ccc(-n5cnc6ccc(Oc7c(F)ccc(NS(=O)(=O)N8CC[C@@H](F)C8)c7C#N)cc6c5=O)cn4)CC3)CC2)cc1C(=O)NC1CCC(=O)NC1=O (some centres unmarked) and give its measured Dmax.
Response: ≤ 35%

* * *

measured_on: B-RAF G466V (Homo sapiens, UniProt P15056, G466V)
Construct: expressed in transfected cells; host or cells: T-Rex 293 cells (Invitrogen #R71007)
test_details: Target protein degradation, assay D: T-Rex 293 cells, HA-BRAF_G466V, 384 well format
Type: cell-based
conditions_used: T-REx-293, Assay D, T-Rex 293 HA-BRAF_G466V cells, 24 hours, Examples 83-269
observable: Dmax

compound	Dmax
N#Cc1c(NS(=O)(=O)N2CC[C@@H](F)C2)ccc(F)c1Oc1ccc2ncn(-c3ccc(N4CCC(CN5CCN(CC6CCN(c7ccc8c(c7)CN([C@@H]7CCC(=O)NC7=O)C8=O)CC6)CC5)CC4)cc3)c(=O)c2c1	≤ 35%

Prompt: Consider the compound "N#Cc1c(NS(=O)(=O)N2CC[C@@H](F)C2)ccc(F)c1Oc1ccc2ncn(-c3ccc(N4CCC(CN5CCN(CC6CCN(c7ccc8c(c7)CN([C@H]7CCC(=O)NC7=O)C8=O)CC6)CC5)CC4)cc3)c(=O)c2c1" and give its measured Dmax.
Response: ≤ 35%

Prompt: Consider the compound N#Cc1c(NS(=O)(=O)N2CC[C@@H](F)C2)ccc(F)c1Oc1ccc2ncn(-c3ccc(N4CCN(CC5CCN(c6ccc(C7CCC(=O)NC7=O)nc6)CC5)CC4)cc3)c(=O)c2c1 (stereo partly drawn) and give its measured Dmax.
Response: ≤ 35%

Prompt: Consider the compound N#Cc1c(NS(=O)(=O)N2CC[C@@H](F)C2)ccc(F)c1Oc1ccc2ncn(-c3ccc(N4CCC(OC5CC6(C5)CN(c5ccc7c(c5)CN(C5CCC(=O)NC5=O)C7=O)C6)CC4)cc3)c(=O)c2c1 (stereo partly drawn) and give its measured Dmax.
Response: 35 to 70%
